Molecular target: human LYPLA1 (Homo sapiens, UniProt O75608)
Construct: endogenous human LYPLA1/2 in a HeLa soluble proteome; endogenous in cells; host or cells: HeLa (soluble proteome in vitro; cultured cells in situ)
Sequence (O75608 whole entry): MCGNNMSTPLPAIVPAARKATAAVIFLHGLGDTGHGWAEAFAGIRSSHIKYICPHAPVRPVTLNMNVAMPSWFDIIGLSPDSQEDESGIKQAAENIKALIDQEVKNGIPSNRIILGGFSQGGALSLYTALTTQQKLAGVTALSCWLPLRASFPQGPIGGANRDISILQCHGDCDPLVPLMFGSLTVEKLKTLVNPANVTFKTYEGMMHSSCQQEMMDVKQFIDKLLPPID
Assay: IC50 by gel-based competitive ABPP in vitro, soluble HeLa cell proteome
Format: biochemical
Settings: HeLa cell lysates, FP-Rh; read-out: human LYPLA1 IC50 in vitro
OBSERVATION TYPE: IC50 (nM)

1. O=C(ON1C(=O)C2CN(C(=O)N3CCOCC3)CCN2C1=O)N1CCC(CCc2ccc(Cl)cc2)CC1 (stereo not shown) ... 122

* * *

Target: LYPLA1 (Mus musculus)
Construct: a complex proteome endogenously expressing LYPLA1/2 was incubated with test compound; from tissue; host or cells: mouse brain, membrane fraction
Sequence (P97823 whole entry): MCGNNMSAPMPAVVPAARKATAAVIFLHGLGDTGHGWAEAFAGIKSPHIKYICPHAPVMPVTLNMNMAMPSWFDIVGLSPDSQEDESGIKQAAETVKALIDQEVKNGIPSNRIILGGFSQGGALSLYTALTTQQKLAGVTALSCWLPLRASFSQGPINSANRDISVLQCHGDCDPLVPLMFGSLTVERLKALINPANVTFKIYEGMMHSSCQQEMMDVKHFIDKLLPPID
Assay: Gel-based competitive ABPP in vitro, mouse brain membrane proteome
Type: biochemical
Details: 100 μM compound, 30 min, one replicate; read-out: LYPLA1 % INH 100 μM
OBSERVATION TYPE: inhibition at 100 µM (%)

1. CC(C)(C)OC(=O)N1CCN2C(=O)N(OC(=O)N3CCN(CCc4ccccc4)CC3)C(=O)C2C1 (stereo not drawn) [Compound 17] ... 90
2. O=C(ON1C(=O)C2CN(Cc3ccc(Br)cc3)CCN2C1=O)N1CCC(CCc2ccc(Cl)cc2)CC1 (stereo not drawn) [Compound 13] ... 90
3. CC(C)(C)OC(=O)N1CCN2C(=O)N(OC(=O)N3CCC(C(=O)Nc4ccccc4)CC3)C(=O)C2C1 (stereo not drawn) [Compound 19] ... 50

Taken from patent US9981972B2.
